Test system: NCI-H522
assay-method-text: NCI tumour cell line growth inhibition, 48 h
Active and inactive are the calls of the source. Rule as the data show it: active = GI50 up to about 1.1 µM and inactive = higher.
Outcome codes: active, inactive

compound	target-desc	qualitative-label
CC(Oc1ccccc1Cl)C(=O)NN1C(=O)CC(=O)N(c2ccc(Cl)cc2)C1=S (centres undefined)	NCI-H522	inactive
N#Cc1cc(-c2nc3ccc(F)cc3s2)ccc1N	NCI-H522	inactive
Cc1ccc(S(=O)(=O)Nn2c(O)c(C#N)c(-c3ccc([N+](=O)[O-])cc3)c(C#N)c2=O)cc1	NCI-H522	inactive
Cc1ccc(Nc2ccc(Nc3ccc(C)cc3)c3c2C(=O)c2c(O)ccc(O)c2C3=O)cc1	NCI-H522	inactive
COc1ccc(Nc2nnc(CCCCCCCCc3nnc(Nc4ccc(OC)cc4)o3)o2)cc1	NCI-H522	inactive
O=S(=O)(/N=C(\NO)Nc1ccc(Cl)cc1)c1ccc(-c2ccccn2)s1	NCI-H522	inactive
CCN1C(=O)C(=C/C=C/C=C2/N(C)c3ccccc3C2(C)C)C(=O)N(CC)C1=S	NCI-H522	inactive
CSC1=N/C(=C\c2ccccc2)C(=O)N1CN1CCCCC1	NCI-H522	inactive
CC(C)(CO)CNc1nc(N)nc(Cl)c1N	NCI-H522	inactive
Cc1c2cc[n+](C)cc2c(COC2OC(CO)C(O)C2O)c2c3ccccc3n(C)c12 (centres undefined)	NCI-H522	inactive
COC(=O)C(C(=O)C(=O)Nc1cccc(OC)c1)c1cnc2ccccc2n1 (centres undefined)	NCI-H522	inactive
CC(C)(C)c1cc2ccc(C(N)=O)cc2c(=O)[nH]1	NCI-H522	inactive
c1cc2ccc1C1NCCCN1CCN1CCCNC1c1ccc(cc1)C1NCCCN1CCN1CCCNC21 (centres undefined)	NCI-H522	inactive
CC(C)(Oc1ccc2c(=O)cc(-c3ccccc3)oc2c1)C(=O)Nc1c(Cl)cccc1Cl	NCI-H522	inactive
CC(C)N1CN(C(C(=O)N[C@@H]2C(=O)N3C2SC(C)(C)C3C(=O)O)c2ccc(O)cc2)CSC1=S (some centres undefined)	NCI-H522	inactive
C/C=C(\C)CC/C=C/CO[Si](C)(C)C(C)(C)C	NCI-H522	inactive
Cl/C(=C\C=N\c1ccc(I)cc1)c1ccc2ccccc2c1	NCI-H522	inactive
O=C(c1cc2c(c3ccccc13)NC1(CCCCC1)N=C2C(F)(F)F)C(F)(F)F	NCI-H522	inactive
O=C1C=CC(=O)c2c1ccc1c3ccccc3n(CCCCCCCCn3c4ccccc4c4ccc5c(c43)C(=O)C=CC5=O)c21	NCI-H522	inactive
O=C(Nc1ccc(Cl)cc1Cl)C(=O)C(C(=O)c1ccncc1)C1OC(=O)c2ccccc21 (centres undefined)	NCI-H522	inactive
COc1cc2c(c(O)c1OC)C(=O)C(Cc1ccc(O)cc1)CO2 (centres undefined)	NCI-H522	inactive
CCN(CC)CCN(/C(=N/c1ccccc1)N1CCCCC1)c1ccccc1	NCI-H522	inactive
Cc1ccnc2nc(-c3ccc4ccccc4c3)cc(O)c12	NCI-H522	active
CC1=C(/C=C/Cl)CC(Cl)C(C)(Cl)C1 (centres undefined)	NCI-H522	inactive
N#CC(NNC(=O)Cc1ccccc1)c1cccc(O)c1 (centres undefined)	NCI-H522	inactive
COc1ccc(-c2cc(=O)c3cc(O)ccc3o2)c(OC)c1OC	NCI-H522	inactive
Cc1c(-c2cc3n(n2)C(c2cccs2)C(C#N)=C(c2ccccc2)N3)c(=O)n(-c2ccccc2)n1C (centres undefined)	NCI-H522	inactive
CCOC(=O)c1c(-c2[nH]c(C(=O)OCc3ccccc3)c(C)c2C(=O)OCC)[nH]c(C(=O)OCc2ccccc2)c1C	NCI-H522	inactive
CC1OC(O[C@H]2CC[C@]3(C)[C@H]4CC=C5[C@@H]6[C@@H](C)[C@H](C)CC[C@]6(C(=O)O)CC[C@@]5(C(=O)O)[C@]4(C)CC[C@H]3C2(C)C)C(O)C(O)C1O (some centres undefined)	NCI-H522	inactive
Cc1cnc2sn(-c3ccc(Oc4ccccc4)cc3)c(=O)c2c1	NCI-H522	inactive
[O-][n+]1c2ccccc2[n+]([O-])c2cc(Br)ccc21	NCI-H522	inactive
N#C/C(=C/Sc1ccccc1)C(=O)O	NCI-H522	inactive
CCOC(=O)C1C(O)CC2c3ccccc3-c3ccccc3C21 (centres undefined)	NCI-H522	inactive
Cc1c([N+](=O)[O-])oc2ccc3ccccc3c12	NCI-H522	inactive
O=C(COc1ccc(OCC(=O)N2C(=O)CC/C2=N\c2ccc(Cl)cc2)cc1)N1C(=O)CS/C1=N\c1ccc(Cl)cc1	NCI-H522	inactive
CC(C)(C)C(=C[S+]([O-])/N=C/c1ccccc1)C(C)(C)C (centres undefined)	NCI-H522	inactive
CC(=O)O[C@H]1CC[C@@]2(C)C(=CC[C@H]3[C@@H]4CC[C@H](c5cc(C(F)(F)F)n(C(C)=O)n5)[C@@]4(C)CC[C@@H]32)C1	NCI-H522	inactive
CC(C)(C)c1cc[n+](C[n+]2ccc(C(C)(C)C)cc2)cc1	NCI-H522	inactive
C=CCN1C[C@H](C)N([C@@H](c2ccc(C(=O)N3CCCCC3)cc2)c2cccc(OC)c2)C[C@H]1C	NCI-H522	inactive
